Reference for the values: ChEMBL document CHEMBL4020741

- System: UniProt:P00747
- Sequence (P00747 97-580 limits assumed): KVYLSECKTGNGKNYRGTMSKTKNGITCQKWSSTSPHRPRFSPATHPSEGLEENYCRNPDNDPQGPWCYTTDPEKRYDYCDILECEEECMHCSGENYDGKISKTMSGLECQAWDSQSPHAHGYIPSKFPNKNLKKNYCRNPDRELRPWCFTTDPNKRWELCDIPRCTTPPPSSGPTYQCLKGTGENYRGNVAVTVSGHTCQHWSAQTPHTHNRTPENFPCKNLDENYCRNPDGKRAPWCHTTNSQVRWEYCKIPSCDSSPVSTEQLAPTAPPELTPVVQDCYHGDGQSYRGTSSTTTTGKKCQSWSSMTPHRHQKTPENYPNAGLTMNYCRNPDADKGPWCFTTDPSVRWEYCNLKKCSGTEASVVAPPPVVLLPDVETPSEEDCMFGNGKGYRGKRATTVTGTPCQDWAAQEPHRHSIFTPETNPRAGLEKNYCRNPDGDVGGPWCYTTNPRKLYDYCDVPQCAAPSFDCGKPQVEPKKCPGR
- Sequence (P00747 581-810 limits assumed): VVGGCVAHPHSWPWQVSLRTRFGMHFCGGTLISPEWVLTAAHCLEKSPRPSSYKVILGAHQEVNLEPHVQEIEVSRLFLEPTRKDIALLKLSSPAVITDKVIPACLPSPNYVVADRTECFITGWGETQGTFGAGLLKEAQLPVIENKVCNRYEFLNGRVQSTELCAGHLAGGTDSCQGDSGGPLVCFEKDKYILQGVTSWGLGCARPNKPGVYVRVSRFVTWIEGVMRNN
Quantity: Ki

# input molecule: `Cc1cc2cc(C)c1CCOC(=O)Nc1ccc(S(=O)(=O)C3CC3)c(c1)CN(C)C(=O)[C@@H]2Nc1ccc2cc[nH]c(=O)c2c1` ; wanted: its Ki
> 10 µM

* * *

- Method summary: Oral bioavailability in rat
- Format: ADME, organism-based
- Stated conditions: in vivo
Quantity: bioavailability
The reply should consist of the numeric value with the unit placed after it.

# input molecule: `CCc1cc2ccc1CCOC(=O)Nc1ccc(SC(C)C)c(c1)CN(C)C(=O)[C@@H]2Nc1cccc(C(N)=O)c1` ; wanted: its bioavailability
5.5%

* * *

- System: Prothrombin (Homo sapiens, UniProt P00734)
Quantity: Ki

# input compound: CCc1cc2ccc1CCOC(=O)Nc1ccc(S(=O)(=O)C(C)C)c(c1)CN(C)C(=O)[C@@H]2Nc1cccc(C(N)=O)c1 (stereo in doubt; 14) ; wanted: its Ki
> 10 µM
